B1: ETS1 (parent)
chain: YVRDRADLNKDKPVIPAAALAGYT

# Variants of: B1
# assay details: protein stability index of a GFP-peptide fusion (GPS, HEK-293T) (PSI 1-6); higher = more stable;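 further: lentivirally expressed fusions sorted by FACS into six bins by GFP to DsRed ratio, PSI derived from sequencing read proportions per bin multiplied by bin number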
# measurement setup: c terminus: a fixed tail appended
Label scheme, based on protein stability index: lo (below 2), med (2 to below 3), hi (3 or more)

Hi, small favor: classify L20E by its protein stability index when you get a moment. lo

Hi, small favor: classify A6P by its protein stability index when you get a moment. lo

Hi, small favor: classify A6T by its protein stability index when you get a moment. lo

Hi, small favor: classify K10P by its protein stability index when you get a moment. med

Hi, small favor: classify D4W by its protein stability index when you get a moment. lo

Hi, small favor: classify Y23R by its protein stability index when you get a moment. lo

Hi, small favor: classify R5A by its protein stability index when you get a moment. med

Hi, small favor: classify V14A by its protein stability index when you get a moment. lo

Hi, small favor: classify D7G by its protein stability index when you get a moment. med

Hi, small favor: classify V14S by its protein stability index when you get a moment. med

Hi, small favor: classify A18Y by its protein stability index when you get a moment. med

Hi, small favor: classify K12V by its protein stability index when you get a moment. med

Hi, small favor: classify A17Q by its protein stability index when you get a moment. lo

Hi, small favor: classify A18N by its protein stability index when you get a moment. med

Hi, small favor: classify P16F by its protein stability index when you get a moment. hi

Hi, small favor: classify A21W by its protein stability index when you get a moment. med

Hi, small favor: classify Y1S by its protein stability index when you get a moment. hi

Hi, small favor: classify N9F by its protein stability index when you get a moment. med

Hi, small favor: classify D7F by its protein stability index when you get a moment. med

Hi, small favor: classify N9W by its protein stability index when you get a moment. hi

Hi, small favor: classify R5Y by its protein stability index when you get a moment. med

Hi, small favor: classify P13L by its protein stability index when you get a moment. med

Hi, small favor: classify K12E by its protein stability index when you get a moment. lo

Hi, small favor: classify A6Q by its protein stability index when you get a moment. med

Hi, small favor: classify L8F by its protein stability index when you get a moment. med

Hi, small favor: classify Y23S by its protein stability index when you get a moment. lo

Hi, small favor: classify L20W by its protein stability index when you get a moment. hi

Hi, small favor: classify N9S by its protein stability index when you get a moment. lo

Hi, small favor: classify G22I by its protein stability index when you get a moment. med

Hi, small favor: classify V14M by its protein stability index when you get a moment. med

Hi, small favor: classify I15N by its protein stability index when you get a moment. hi

Hi, small favor: classify Y1G by its protein stability index when you get a moment. hi

Hi, small favor: classify K10D by its protein stability index when you get a moment. med

Hi, small favor: classify A17F by its protein stability index when you get a moment. lo

Hi, small favor: classify R3M by its protein stability index when you get a moment. lo

Hi, small favor: classify T24Y by its protein stability index when you get a moment. med

Hi, small favor: classify R5V by its protein stability index when you get a moment. lo

Hi, small favor: classify V14W by its protein stability index when you get a moment. med
